# Test system: NCI-H460 non-small cell lung carcinoma cells
# experiment: Cytotoxicity, sulphorodamine B, H460
# condition_description: Homo sapiens, NCI-H460, read-out: H460 cell line IC50 (μM)
quantity_kind: IC50

- molecule: "CC(=O)SCCCCC[C@H](NC(=O)[C@H]1C(=O)NC[C@@H]1c1ccccc1)C(=O)Nc1ccccc1 (relative stereo) [Example 19]"
  measured_target: "NCI-H460 non-small cell lung carcinoma cells"
  result: "< 0.5 µM"

Input CC(=O)SCCCCC[C@H](NC(=O)[C@@H]1CCC(=O)N1)C(=O)Nc1ccccc1 [Example 11] , output reported IC50. < 0.5 µM

Assign IC50 to the following record: CC(=O)SCCCCC[C@H](NC(=O)[C@@H]1CCC(=O)N1)C(=O)Nc1cccc(C)c1 [Example 7] < 0.5 µM

In one line, give reported IC50 of the entry CCOC(=S)OCCCCC[C@H](NC(=O)[C@H]1CCC(=O)N1)C(=O)Nc1ccccc1 [Example 42] . < 0.5 µM

Answer with the recorded IC50 of CC(=O)SCCCCC[C@H](NC(=O)[C@H]1CCC(=O)N1)C(=O)Nc1cccc(C)c1 [Example 8] only. < 0.5 µM

Please give measured IC50 of the following entry: CC(=O)SCCCCC[C@H](NC(=O)[C@H]1CCC(=O)N1)C(=O)Nc1ccccc1 [Example 21] < 0.5 µM

Look up and report measured IC50 for this entry: CCOC(=S)OCCCCC[C@H](NC(=O)[C@@H]1CCCC(=O)N1)C(=O)Nc1ccccc1 [Example 41] 0.5 to 1 µM

Identify measured IC50 corresponding to CC(C)C(=O)SCCCCC[C@H](NC(=O)[C@@H]1CCCC(=O)N1)C(=O)Nc1ccccc1 [Example 43] 1 to 10 µM

In one line, give reported IC50 of the entry CC(=O)SCCCCC[C@H](NC(=O)[C@H]1CCCC(=O)N1)C(=O)Nc1ccccc1 [Example 13] . < 0.5 µM

Retrieve IC50 measured for CC(=O)SCCCCC[C@H](NC(=O)[C@@H]1CCCC(=O)N1)C(=O)Nc1ccc(C)cc1 [Example 15] and print it. < 0.5 µM

Given the molecule CC(=O)SCCCCC[C@H](NC(=O)[C@@H]1CC=CC(=O)N1)C(=O)Nc1ccccc1 [Example 10] , write its reported IC50. < 0.5 µM

Kindly indicate its recorded IC50. Item: CC(=O)SCCCCC[C@H](NC(=O)[C@@H]1CCCC(=O)N1)C(=O)Nc1ccccc1 [Example 14] < 0.5 µM

// Input: CC(=O)SCCCCC[C@H](NC(=O)[C@@H]1CC(=O)N1)C(=O)Nc1ccccc1 [Example 1] . Output its IC50 only. < 0.5 µM
